Tested on: SR leukemia
experimental protocol: NCI tumour cell line growth inhibition, 48 h
Quick reference for TGI among some molecules
# value in µM; strip the unit string

Please look up its TGI: "C/C(CC(C)(C)N1CC1)=N\NC(=O)Nc1cccc2ccccc12" 6.13

Please look up its TGI: "COC(=O)C1=C(C(=O)ON)[C@@H]2C=C[C@@]1([C@@H](Cc1ccccc1)Nc1ccccc1)O2" 10.4

---

System: SF-295 CNS
experimental protocol: NCI tumour cell line growth inhibition, 48 h
readout name: TGI

O=C(CCCC(=O)N/N=C/c1cc(Cl)ccc1O)N/N=C\c1cc(Cl)ccc1O
> 100 µM

Please look up its TGI: COCN1C(=N)C(C(=O)OC(C)(C)C)=C2C=C(O)C=CC21C (stereo unspecified) > 100 µM

Please look up its TGI: "O=C(C=Nc1ccccc1S)c1ccco1" 18.8 µM
